Target: human TPO receptor (hTPOR) (Homo sapiens)
Assay: Proliferation of TPO dependent BaF/hTPOR cells (thrombopoietic activity, WST-1)
Details: 20 hours + 4 hours WST-1, absorbance at 450 nm, ED50 = half concentration of the concentration showing the maximum thrombopoietic activity
Would you mind telling me the reported pEC50 of each entry?
pEC50 here is simply -log10 of the concentration when that concentration is written in mol/L.

Considering O=C1NC(=O)C(=Cc2ccc(C(=O)Nc3nc(-c4ccc(Br)cc4)cs3)cc2)S1 [Compound B-3] , its pEC50 with human TPO receptor (hTPOR) (Homo sapiens) was recorded as 7.33

Considering Cc1ccc(-c2csc(NC(=O)c3ccc(C=C4SC(=O)NC4=O)cc3)n2)cc1 [Compound B-5] , its pEC50 with human TPO receptor (hTPOR) (Homo sapiens) was recorded as 7.33

Considering O=C1NC(=O)C(=Cc2ccc(C(=O)Nc3nc(-c4ccc(Cl)cc4)cs3)cc2)S1 [Compound B-4] , its pEC50 with human TPO receptor (hTPOR) (Homo sapiens) was recorded as 7.43

Considering Cc1cc(Br)sc1-c1csc(NC(=O)c2ccc(/C=C3\SC(=S)NC3=O)cc2)n1 [Compound A-56] , its pEC50 with human TPO receptor (hTPOR) (Homo sapiens) was recorded as 7.02

Considering COC(=O)c1sc(NC(=O)c2ccc(/C=C3\SC(=S)NC3=O)cc2)nc1-c1ccc(F)cc1 [Compound A-42] , its pEC50 with human TPO receptor (hTPOR) (Homo sapiens) was recorded as 7.14

Considering O=C1NC(=S)S/C1=C\c1ccc(C(=O)Nc2nc(-c3ccc(F)c(F)c3)cs2)cc1 [Compound A-20] , its pEC50 with human TPO receptor (hTPOR) (Homo sapiens) was recorded as 7.54

Considering O=C1NC(=S)S/C1=C\c1ccc(C(=O)Nc2nc(-c3ccc(Cl)s3)cs2)cc1 [Compound A-15] , its pEC50 with human TPO receptor (hTPOR) (Homo sapiens) was recorded as 7.59

Considering O=C1NC(=O)/C(=C/c2ccc(C(=O)Nc3nc4c(s3)CCc3ccccc3-4)cc2)S1 [Compound B-21] , its pEC50 with human TPO receptor (hTPOR) (Homo sapiens) was recorded as 7.08

====

Biological target: human TPO receptor (hTPOR) (Homo sapiens, UniProt P40238)
Sequence (P40238 26-635): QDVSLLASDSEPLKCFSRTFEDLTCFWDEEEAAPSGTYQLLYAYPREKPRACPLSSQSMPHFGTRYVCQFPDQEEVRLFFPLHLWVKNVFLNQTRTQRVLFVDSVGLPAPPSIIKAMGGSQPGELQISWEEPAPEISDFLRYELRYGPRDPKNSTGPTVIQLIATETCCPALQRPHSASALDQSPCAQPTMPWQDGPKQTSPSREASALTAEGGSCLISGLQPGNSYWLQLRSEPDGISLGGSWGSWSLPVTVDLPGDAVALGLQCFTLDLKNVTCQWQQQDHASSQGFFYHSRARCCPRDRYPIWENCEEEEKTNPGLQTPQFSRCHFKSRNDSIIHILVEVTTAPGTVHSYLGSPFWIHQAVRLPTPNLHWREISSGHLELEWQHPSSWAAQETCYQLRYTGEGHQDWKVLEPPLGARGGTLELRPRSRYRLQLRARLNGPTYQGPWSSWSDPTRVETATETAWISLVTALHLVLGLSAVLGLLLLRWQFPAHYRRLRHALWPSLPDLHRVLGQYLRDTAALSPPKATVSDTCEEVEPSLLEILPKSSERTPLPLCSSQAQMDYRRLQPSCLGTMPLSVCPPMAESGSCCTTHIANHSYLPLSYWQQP
Experiment: Proliferation of TPO dependent BaF/hTPOR cells (thrombopoietic activity, WST-1)
Conditions: 20 hours + 4 hours WST-1, absorbance at 450 nm, ED50 = half concentration of the concentration showing the maximum thrombopoietic activity
MEASURED_PARAMETER: EC50 (nM)
Numeric answer only, unit nM assumed.

The recorded EC50 for entry O=C1NC(=S)S/C1=C\c1ccc(C(=O)Nc2nc(-c3ccc([N+](=O)[O-])cc3)cs2)cc1 equals 15

The recorded EC50 for entry O=C1NC(=S)S/C1=C\c1ccc(C(=O)Nc2nc3c(s2)CCc2ccccc2-3)cc1 equals 35

The recorded EC50 for entry CC(C)(C)c1ccc(-c2csc(NC(=O)c3ccc(/C=C4\SC(=S)NC4=O)cc3)n2)cc1 equals 31

The recorded EC50 for entry O=C1NC(=O)/C(=C/c2ccc(C(=O)Nc3nc(-c4ccc(Cl)s4)cs3)cc2)S1 equals 23

The recorded EC50 for entry O=C1NC(=O)C(=Cc2ccc(C(=O)Nc3nc(-c4ccc(Cl)c(Cl)c4)cs3)cc2)O1 equals 68

The recorded EC50 for entry Cc1ccc(-c2csc(NC(=O)c3ccc(C=C4SC(=S)NC4=O)cc3)n2)cc1 equals 45

The recorded EC50 for entry O=C1NC(=S)SC1=Cc1ccc(C(=O)Nc2nc(-c3ccc(Br)cc3)cs2)cc1 equals 36

The recorded EC50 for entry O=C1NC(=O)/C(=C/c2ccc(C(=O)Nc3nc(-c4ccc(Cl)c(Cl)c4)cs3)cc2)S1 equals 20

Numbers sourced from patent US7026334B1.
